# Tested on: Plasmodium falciparum
# ASSAY_PROTOCOL: Antimalarial activity against chloroquine-,pyrimethamine-resistant Plasmodium falciparum W2 assessed as inhibition of [3H]hypoxanthine incorporation after 96 hrs by microtiter plate scintillation counting
# Assay type: functional, organism-based
RECORDED_METRIC: IC50

Q: Report IC50 for CC[C@H]1OC(=O)[C@H](C)[C@@H](O[C@H]2C[C@@](C)(OC)[C@@H](O)[C@H](C)O2)[C@H](C)[C@@H](O[C@@H]2O[C@H](C)C[C@H](N(C)C)[C@H]2O)[C@](C)(O)C[C@@H](C)CN(CCCNC(=S)Nc2ccc(OC(F)F)cc2)[C@H](C)[C@@H](O)[C@]1(C)O please.
A: 63 nM

Q: Item: CC[C@H]1OC(=O)[C@H](C)[C@@H](O[C@H]2C[C@@](C)(OC)[C@@H](O)[C@H](C)O2)[C@H](C)[C@@H](O[C@@H]2O[C@H](C)C[C@H](N(C)C)[C@H]2O)[C@](C)(O)C[C@@H](C)CN(CCCNC(=S)Nc2ccc(Cl)c(C(F)(F)F)c2)[C@H](C)[C@@H](O)[C@]1(C)O
A: 35 nM

***
Q: Given CC[C@H]1OC(=O)[C@H](C)[C@@H](O[C@H]2C[C@@](C)(OC)[C@@H](O)[C@H](C)O2)[C@H](C)[C@@H](O[C@@H]2O[C@H](C)C[C@H](N(C)C)[C@H]2O)[C@](C)(O)C[C@@H](C)CN(CCCNC(=S)Nc2cccc(-c3ccccc3)c2OC)[C@H](C)[C@@H](O)[C@]1(C)O , state its recorded IC50.
A: 114 nM

###

# Tested on: Plasmodium falciparum
# ASSAY_PROTOCOL: Antimalarial activity against chloroquine-,pyrimethamine-resistant Plasmodium falciparum W2 assessed as inhibition of [3H]hypoxanthine incorporation after 96 hrs by microtiter plate scintillation counting
# Format: functional, organism-based
Consider the cut-off 0.07 µM. If the recorded IC50 is strictly smaller, the label is criterion met; if not, the label is criterion not met.

Q: Does CC[C@H]1OC(=O)[C@H](C)[C@@H](O[C@H]2C[C@@](C)(OC)[C@@H](O)[C@H](C)O2)[C@H](C)[C@@H](O[C@@H]2O[C@H](C)C[C@H](N(C)C)[C@H]2O)[C@](C)(O)C[C@@H](C)CN(CCCNC(=O)Nc2cccc(SC)c2)[C@H](C)[C@@H](O)[C@]1(C)O have IC50 strictly under 0.07 µM?
A: criterion not met

Here's the next entry for you.
Q: Below 0.07 µM on IC50? Entry CC[C@H]1OC(=O)[C@H](C)[C@@H](O[C@H]2C[C@@](C)(OC)[C@@H](O)[C@H](C)O2)[C@H](C)[C@@H](O[C@@H]2O[C@H](C)C[C@H](N(C)C)[C@H]2O)[C@](C)(O)C[C@@H](C)CN(CCCNC(=O)NC2CCCC2)[C@H](C)[C@@H](O)[C@]1(C)O
A: criterion not met

###

IC50 values by entry
# Test system: Plasmodium falciparum
# ASSAY_PROTOCOL: Antimalarial activity against chloroquine-,pyrimethamine-resistant Plasmodium falciparum W2 assessed as inhibition of [3H]hypoxanthine incorporation after 96 hrs by microtiter plate scintillation counting
# Assay type: functional, organism-based
Reply numerically in nM, unit not repeated.

Q: # input molecule: CC[C@H]1OC(=O)[C@H](C)[C@@H](O[C@H]2C[C@@](C)(OC)[C@@H](O)[C@H](C)O2)[C@H](C)[C@@H](O[C@@H]2O[C@H](C)C[C@H](N(C)C)[C@H]2O)[C@](C)(O)C[C@@H](C)CN(CCCNC(=S)Nc2ccc(C#N)cc2)[C@H](C)[C@@H](O)[C@]1(C)O ; wanted: its IC50
A: 50

Q: Moving on to CC[C@H]1OC(=O)[C@H](C)[C@@H](O[C@H]2C[C@@](C)(OC)[C@@H](O)[C@H](C)O2)[C@H](C)[C@@H](O[C@@H]2O[C@H](C)C[C@H](N(C)C)[C@H]2O)[C@](C)(O)C[C@@H](C)CN(CCCNC(=S)NCCCN2CCOCC2)[C@H](C)[C@@H](O)[C@]1(C)O
A: 1270

Q: Let us now turn to CC[C@H]1OC(=O)[C@H](C)[C@@H](O[C@H]2C[C@@](C)(OC)[C@@H](O)[C@H](C)O2)[C@H](C)[C@@H](O[C@@H]2O[C@H](C)C[C@H](N(C)C)[C@H]2O)[C@](C)(O)C[C@@H](C)CN(CCCNC(=S)NC2CCCCCCCCCCC2)[C@H](C)[C@@H](O)[C@]1(C)O
A: 85

***
Q: Fill in: IC50 of CC[C@H]1OC(=O)[C@H](C)[C@@H](O[C@H]2C[C@@](C)(OC)[C@@H](O)[C@H](C)O2)[C@H](C)[C@@H](O[C@@H]2O[C@H](C)C[C@H](N(C)C)[C@H]2O)[C@](C)(O)C[C@@H](C)CN(CCCNC(=S)Nc2ccc(Oc3ccccc3)nc2)[C@H](C)[C@@H](O)[C@]1(C)O is ___
A: 109

Q: Item: CC[C@H]1OC(=O)[C@H](C)[C@@H](O[C@H]2C[C@@](C)(OC)[C@@H](O)[C@H](C)O2)[C@H](C)[C@@H](O[C@@H]2O[C@H](C)C[C@H](N(C)C)[C@H]2O)[C@](C)(O)C[C@@H](C)CN(C)[C@H](C)[C@@H](O)[C@]1(C)O [AZITHROMYCIN]
A: 2240

Q: Same again, this time with CC[C@H]1OC(=O)[C@H](C)[C@@H](O[C@H]2C[C@@](C)(OC)[C@@H](O)[C@H](C)O2)[C@H](C)[C@@H](O[C@@H]2O[C@H](C)C[C@H](N(C)C)[C@H]2O)[C@](C)(O)C[C@@H](C)CN(CCCNC(=S)NCCCl)[C@H](C)[C@@H](O)[C@]1(C)O
A: 12800

Q: Would you mind doing CC[C@H]1OC(=O)[C@H](C)[C@@H](O[C@H]2C[C@@](C)(OC)[C@@H](O)[C@H](C)O2)[C@H](C)[C@@H](O[C@@H]2O[C@H](C)C[C@H](N(C)C)[C@H]2O)[C@](C)(O)C[C@@H](C)CN(CCCNC(=S)Nc2cccc([N+](=O)[O-])c2)[C@H](C)[C@@H](O)[C@]1(C)O as well?
A: 48.3

Q: Input CC[C@H]1OC(=O)[C@H](C)[C@@H](O[C@H]2C[C@@](C)(OC)[C@@H](O)[C@H](C)O2)[C@H](C)[C@@H](O[C@@H]2O[C@H](C)C[C@H](N(C)C)[C@H]2O)[C@](C)(O)C[C@@H](C)CN(CCCNC(=S)Nc2cccc(F)c2)[C@H](C)[C@@H](O)[C@]1(C)O
A: 200

Q: Same thing, different molecule: CC[C@H]1OC(=O)[C@H](C)[C@@H](O[C@H]2C[C@@](C)(OC)[C@@H](O)[C@H](C)O2)[C@H](C)[C@@H](O[C@@H]2O[C@H](C)C[C@H](N(C)C)[C@H]2O)[C@](C)(O)C[C@@H](C)CN(CCCNC(=O)Nc2ccc(C)cc2C)[C@H](C)[C@@H](O)[C@]1(C)O
A: 179

Q: Same read-out for CC[C@H]1OC(=O)[C@H](C)[C@@H](O[C@H]2C[C@@](C)(OC)[C@@H](O)[C@H](C)O2)[C@H](C)[C@@H](O[C@@H]2O[C@H](C)C[C@H](N(C)C)[C@H]2O)[C@](C)(O)C[C@@H](C)CN(CCCNC(=S)Nc2ccc3c(c2)OCO3)[C@H](C)[C@@H](O)[C@]1(C)O ?
A: 182

Q: Same question for CCC(C)NC(=O)NCCCN1C[C@H](C)C[C@@](C)(O)[C@H](O[C@@H]2O[C@H](C)C[C@H](N(C)C)[C@H]2O)[C@@H](C)[C@H](O[C@H]2C[C@@](C)(OC)[C@@H](O)[C@H](C)O2)[C@@H](C)C(=O)O[C@H](CC)[C@@](C)(O)[C@H](O)[C@H]1C (some centres undefined) please.
A: 489

Q: Do the same for CC[C@H]1OC(=O)[C@H](C)[C@@H](O[C@H]2C[C@@](C)(OC)[C@@H](O)[C@H](C)O2)[C@H](C)[C@@H](O[C@@H]2O[C@H](C)C[C@H](N(C)C)[C@H]2O)[C@](C)(O)C[C@@H](C)CN(CCCNC(=S)Nc2ccc(/N=N/c3ccccc3)cc2)[C@H](C)[C@@H](O)[C@]1(C)O please
A: 47.9

Q: Could you do the same for CCCCNC(=S)NCCCN1C[C@H](C)C[C@@](C)(O)[C@H](O[C@@H]2O[C@H](C)C[C@H](N(C)C)[C@H]2O)[C@@H](C)[C@H](O[C@H]2C[C@@](C)(OC)[C@@H](O)[C@H](C)O2)[C@@H](C)C(=O)O[C@H](CC)[C@@](C)(O)[C@H](O)[C@H]1C , please?
A: 188

Q: Request: CC[C@H]1OC(=O)[C@H](C)[C@@H](O[C@H]2C[C@@](C)(OC)[C@@H](O)[C@H](C)O2)[C@H](C)[C@@H](O[C@@H]2O[C@H](C)C[C@H](N(C)C)[C@H]2O)[C@](C)(O)C[C@@H](C)CN(CCCNC(=O)Nc2ccc(Cl)cc2)[C@H](C)[C@@H](O)[C@]1(C)O
A: 99.3
